Reference for the values: patent US20130102527A1

- targetOrSystem: caspase-like site (β1 subunit) of 26S proteasomes purified from rabbit muscle (rabbit)
- procedureText: cell-based or functional assay
Non-standard residues stand in square brackets, D forms with d. No end group written: not given here. Phe(4-N3) = [N-]=[N+]=Nc1ccc(C[C@H](N)C(=O)O)cc1; Phe(4-CH2NH2) = NCc1ccc(C[C@H](N)C(=O)O)cc1; Phe(4-NH2) = Nc1ccc(C[C@H](N)C(=O)O)cc1; N3Phe = N-terminal azido-phenylalanine; VS = vinyl sulfone warhead; EK = epoxyketone warhead; ek = epoxyketone warhead
metricName: IC50 (µM) for sites in 26S proteasomes: Casp-L

{"columns": ["binder", "readoutUnits", "relationSign", "testValue"],
 "data": [
  ["[Phe(4-N3)]LL[Phe(4-NH2)]-{EK} [N3-Phe-Leu-Leu-Phe(4-NH2)-EK (45b)]", "µM", ">", 30],
  ["Ac-Leu-Leu-Arg-ek [NC-002 (Ac-Leu-Leu-Arg-ek)]", "µM", ">", 30],
  ["[N3Phe]LL[Phe(4-NH2)]-{VS} [N3-Phe-Leu-Leu-Phe(4-NH2)-VS (45a)]", "µM", "=", 23],
  ["[Phe(4-N3)]LL[Phe(4-CH2NH2)]-{EK} (also: TFA salt) [N3Phe-Leu-Leu-Phe(4-CH2NH2)EK TFA salt (4b)]", "µM", "=", 11]
]}
